Provenance of the data: BindingDB's records for doi:10.1021/acs.jmedchem.6b00993

Assay system Serine/threonine-protein phosphatase 5 (Homo sapiens); read-out recorded as IC50.

molecule="O=C(Nc1ccc(N2CCOCC2)cc1)C(c1ccccc1)S(=O)(=O)O (configuration not stated)" system_under_test="Serine/threonine-protein phosphatase 5 (Homo sapiens)" observable=IC50 value_reported="> 200 µM"

Now consider the entry below.
Given the entry O=C(Nc1cnc2ccccc2c1)C(c1ccccc1)S(=O)(=O)O (configuration not stated) , report its measured IC50.
> 200 µM
